Reference source for all entries: patent US20250270343A1

Biological target: T1, full-length untagged human GPNMB expressed on cells (human, UniProt Q14956 23-572)
T1 sequence: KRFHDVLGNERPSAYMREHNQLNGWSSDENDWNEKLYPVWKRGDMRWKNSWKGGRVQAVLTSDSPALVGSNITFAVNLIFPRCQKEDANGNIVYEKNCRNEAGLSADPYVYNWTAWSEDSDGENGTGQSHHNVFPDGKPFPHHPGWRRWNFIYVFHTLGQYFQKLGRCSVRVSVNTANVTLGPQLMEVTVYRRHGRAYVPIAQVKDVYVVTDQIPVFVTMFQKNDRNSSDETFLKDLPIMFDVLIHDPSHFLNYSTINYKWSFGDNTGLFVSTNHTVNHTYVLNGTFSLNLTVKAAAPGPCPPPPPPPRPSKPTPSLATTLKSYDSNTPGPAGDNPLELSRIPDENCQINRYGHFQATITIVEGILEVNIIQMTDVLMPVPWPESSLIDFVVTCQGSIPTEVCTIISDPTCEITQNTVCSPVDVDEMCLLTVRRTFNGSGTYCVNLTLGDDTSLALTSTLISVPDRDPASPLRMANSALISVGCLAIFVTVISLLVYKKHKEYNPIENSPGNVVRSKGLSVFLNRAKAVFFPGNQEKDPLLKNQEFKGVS
Experiment: cell-based or functional assay
class 1 if Fold Increase PDL1 (max response at 1 µg/ml) is below 4 fold. class 0 if not; exact matches included in class 0.

Some solved entries appear below for comparison.
{"binder": "anti-GPNMB antibody GPN-86 (antibody, V domains shown) VH: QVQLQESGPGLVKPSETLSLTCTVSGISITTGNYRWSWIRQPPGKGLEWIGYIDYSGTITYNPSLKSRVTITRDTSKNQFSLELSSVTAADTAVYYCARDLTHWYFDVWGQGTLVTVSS VL: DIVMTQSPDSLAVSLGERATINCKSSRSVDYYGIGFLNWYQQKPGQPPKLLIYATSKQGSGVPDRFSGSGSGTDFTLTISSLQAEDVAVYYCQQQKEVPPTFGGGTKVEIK", "group": "class 0"}
{"binder": "anti-GPNMB antibody GPN-85 (antibody, V domains shown) VH: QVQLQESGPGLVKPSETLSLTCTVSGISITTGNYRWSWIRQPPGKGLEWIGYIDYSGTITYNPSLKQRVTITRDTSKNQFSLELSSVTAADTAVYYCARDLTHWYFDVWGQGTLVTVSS VL: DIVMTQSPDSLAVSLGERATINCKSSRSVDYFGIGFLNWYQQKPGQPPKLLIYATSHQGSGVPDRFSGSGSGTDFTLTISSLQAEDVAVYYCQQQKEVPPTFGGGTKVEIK", "group": "class 0"}
{"binder": "anti-GPNMB antibody GPN-83 (antibody, V domains shown) VH: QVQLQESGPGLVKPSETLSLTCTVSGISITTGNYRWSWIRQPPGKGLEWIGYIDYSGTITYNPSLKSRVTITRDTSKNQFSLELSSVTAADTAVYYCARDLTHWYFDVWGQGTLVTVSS VL: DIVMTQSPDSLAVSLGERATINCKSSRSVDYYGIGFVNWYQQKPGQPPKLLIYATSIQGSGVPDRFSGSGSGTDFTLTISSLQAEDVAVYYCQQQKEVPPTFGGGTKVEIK", "group": "class 0"}
{"binder": "anti-GPNMB antibody GPN-93 (antibody, V domains shown) VH: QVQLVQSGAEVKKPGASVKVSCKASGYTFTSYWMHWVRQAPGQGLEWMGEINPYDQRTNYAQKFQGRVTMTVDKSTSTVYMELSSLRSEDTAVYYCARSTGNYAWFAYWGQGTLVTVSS VL: DIVMTQSPDSLAVSLGERATINCKTSQDVSPSLAWYQQKPGQPPKLLIYSASKRYTGVPDRFSGSGSGTDFTLTISSLQAEDVAVYYCQQHYSIPLQFGGGTKVEIK", "group": "class 1"}
{"binder": "anti-GPNMB antibody GPN-97 (antibody, V domains shown) VH: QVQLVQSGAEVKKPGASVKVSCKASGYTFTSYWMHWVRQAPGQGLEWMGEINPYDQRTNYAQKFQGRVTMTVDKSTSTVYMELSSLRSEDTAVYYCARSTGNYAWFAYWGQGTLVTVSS VL: DIVMTQSPDSLAVSLGERATINCKTSQDVSPSLAWYQQKPGQPPKLLIYSGSYRYTGVPDRFSGSGSGTDFTLTISSLQAEDVAVYYCQQHYSIPLTFGGGTKVEIK", "group": "class 1"}

Qu. Input anti-GPNMB antibody GPN-92 (antibody, V domains shown, humanized GPN-08) VH: QVQLVQSGAEVKKPGASVKVSCKASGYTFTSYWMHWVRQAPGQGLEWMGEINPSDGRTNYAQKFQGRVTMTVDKSTSTVYMELSSLRSEDTAVYYCARSGGNYAWFAYWGQGTLVTVSS VL: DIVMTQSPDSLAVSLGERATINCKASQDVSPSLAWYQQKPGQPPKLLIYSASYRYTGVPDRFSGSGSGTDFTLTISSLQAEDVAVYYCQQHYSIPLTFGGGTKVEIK ; condition: Fold Increase PDL1 (max response at 1 µg/ml) strictly below 4 fold. Does it hold?
Ans. class 1

Qu. Please check: Fold Increase PDL1 (max response at 1 µg/ml) for anti-GPNMB antibody GPN-82 (antibody, V domains shown) VH: QVQLQESGPGLVKPSETLSLTCTVSGISITTGNYRWSWIRQPPGKGLEWIGYIYYSGTIIYNPSLKSRVTITRDTSKNQFSLELSSVTAADTAVYYCARDLTHWYFDVWGQGTLVTVSS VL: DIVMTQSPDSLAVSLGERATINCKSSRSVDYYGIGFLNWYQQKPGQPPKLLIYATSTQGSGVPDRFSGSGSGTDFTLTISSLQAEDVAVYYCQQQKEVPPTFGGGTKVEIK , strictly under 4 fold or not?
Ans. class 0
